Assay: chemical genetic growth profiling, strain panel (AID 1159580);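 further: tested at 20 µM; growth read once vehicle control cultures reached saturation at 30 °C; 1 = growth at the plate median or of vehicle wells; lower values mean less growth of the strain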
Details: S. cerevisiae deletion strains, growth OD, locus YAL013W, strain DEP1, hits give low values
In all, about 5,500 compounds went through this assay and about 2,000 (36%) were called active. Not shown: some 18% with an inconclusive outcome. The list shows a part of the results.
Please provide measured normalized growth for the entries that follow.

Consider the following illustrative entries.
CNCC(O)c1ccc(O)cc1 (configuration not stated) = 1.03 (inactive)
CCC(c1ccc(O)cc1)C(CC)c1ccc(O)cc1 (configuration not stated) = 0.998 (inactive)
Cc1cc(I)c(C)cc1I = 1.01 (inactive)
CCOCN(C(=O)CCl)c1c(C)cccc1CC = 0.995 (inactive)
N#C/C(=C/c1ccc(O)c(O)c1)C(N)=S = 0.959 (inactive)

Each molecule below has a reported value. Please supply its normalized growth.
1. COc1cc(C=C(C#N)C#N)cc(O)c1O
2. Nc1nc(Nc2ccccc2)nc2c1ncn2[C@@H]1O[C@H](CO)[C@H](O)C1O (some centres not stated)
3. CC(=O)[C@@]1(O)CCC2C3C[C@H](C)C4=CC(=O)C=CC4(C)[C@@]3(F)[C@@H](O)C[C@@]21C (some centres not stated)
4. COc1cc(/C=C(\C#N)C(N)=S)cc(OC)c1OC
5. CSc1cccc(NC(=S)N=CN(C)C)c1

Response given:
1. 1.01 (inactive)
2. 0.982 (inactive)
3. 0.995 (inactive)
4. 0.979 (inactive)
5. 0.977 (inactive)

List normalized growth for every entry below, keeping the order given.
1. NNC(=O)c1ccc(O)cc1
2. CCOC(=O)C1C(c2cccnc2)C(C(=O)OCC)C(O)(C(F)(F)F)NC1(O)C(F)(F)F (configuration not stated)

Response given:
0.949 (inactive)
1 (inactive)

----------
Assay: chemical genetic growth profiling, strain panel (AID 1159580)
Conditions: S. cerevisiae deletion strains, growth OD, locus YOR080W, strain dia2
The campaign covered roughly 5,500 compounds. About 2,000 (36%) were called active. Roughly 18% stayed inconclusive and do not appear here. No stated cut-off is given here; in the data, active means normalized growth mostly below about 0.91 (no sharp cut-off); inconclusive means no clear call, values can overlap the other calls; inactive means mostly above about 0.92. The list shows a part of the results.
Answer with one of the outcomes given here: label 1 (active), label 0 (inactive)

Challenge: Given CCc1cc(C(N)=S)ccn1 , state the outcome it received in this test.
Response given: label 0

Challenge: Also CC1(C)C(=O)C=C[C@@]2(C)C1C=C[C@]1(C)C2CC[C@@]2(C)[C@H](c3ccoc3)OC(=O)C3OC321 (stereo not given in full) ?
Response given: label 0

Challenge: Ok, now CCC(c1ccc(O)cc1)C(CC)c1ccc(O)cc1 (stereo not given)
Response given: label 0

Challenge: Now consider CC1(C)C(=O)C=C[C@@]2(C)C1C[C@@H](O)[C@]1(C)C2CC[C@@]2(C)[C@H](c3ccoc3)OC(=O)[C@H]3O[C@]321 (stereo not given in full) .
Response given: label 0

Challenge: Follow-up entry: NC(N)=NC(=O)c1nc(Cl)c(N)nc1N
Response given: label 0

Challenge: Try this molecule next: CC1(C)C(=O)C=C[C@@]2(C)C1CC(=O)[C@]1(C)C2CC[C@@]2(C)[C@H](c3ccoc3)OC(=O)[C@H]3O[C@]321 (stereo not given in full)
Response given: label 0

Challenge: How about this molecule: O=C1C=C2C(=CCOC2O)O1 (stereo not given)
Response given: label 1

Challenge: Continue with CCC(N)C(O)c1ccc(O)c(O)c1 (stereo not given)
Response given: label 0

Challenge: Subsequent entry: COc1ccc(Cl)cc1C(=O)NCCc1ccc(S(=O)(=O)NC(=O)NC2CCCCC2)cc1
Response given: label 0

Challenge: CC(=O)[C@@]1(O)CCC2C3C[C@H](C)C4=CC(=O)C=CC4(C)[C@@]3(F)[C@@H](O)C[C@@]21C (stereo not given in full) ?
Response given: label 0

----------
Experiment: chemical genetic growth profiling, strain panel (AID 1159580)
Details: S. cerevisiae deletion strains, growth OD, locus YDR162C, strain NBP2, hits give low values
The whole screen tested about 5,500 compounds, of which about 2,000 (36%) were called active. Inconclusive results (about 18%) are left out. This is one part of the list.
So I've got a bunch of compounds here, and I need their normalized growth values.
Numbers only.

CC(C)(C)NCC(O)c1cc(Cl)c(N)c(Cl)c1 (stereo unspecified) = 1
CC(=O)O[C@@H]1CC2C(C)(C)C(=O)C=C[C@]2(C)C2CC[C@@]3(C)[C@H](c4ccoc4)OC(=O)[C@H]4O[C@]43[C@@]21C (stereo partly specified) = 0.996

Hi team, please reply with normalized growth for each item in this list.
1. CC(=O)OC(C)C[N+](C)(C)C (stereo unspecified)
2. CC12CCC3c4ccc(OCc5ccccc5)cc4CCC3C1C[C@@H](O)[C@@H]2O (stereo partly specified)
3. CCCCCc1c2c(cc(O)c1C(=O)O)OC(=O)c1c(cc(OC)cc1C(=O)CCCC)O2

Response given:
1: 1.05; 2: 0.0538; 3: 0.955

Return reported normalized growth values for all items listed beneath this line.
1. CC(C)(O)[C@@H]1Cc2cc3ccc(=O)oc3cc2O1
2. Cc1cc(C2CCCCC2)n(O)c(=O)c1

Response given:
1. 0.989
2. 0.0474

----------
Assay: chemical genetic growth profiling, strain panel (AID 1159580);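 further: tested at 20 µM; growth read once vehicle control cultures reached saturation at 30 °C; 1 = growth at the plate median or of vehicle wells; lower values mean less growth of the strain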
Conditions: S. cerevisiae deletion strains, growth OD, locus YPR119W, strain clb2, hits give low values
Among all 5,500 compounds or so, about 2,000 (36%) were called active. Another 18% or so got no clear call; they are omitted. Some of the results follow.
Record form. Attribute: normalized growth. Fill in for each entry.
Numbers only.

Here is how some compounds turned out for normalized growth.
CC(=O)OC1CN2CCC1CC2 (stereo unspecified) = 0.987
CC12CCC3c4ccc(OC(=O)c5ccccc5)cc4CCC3C1CCC2O (stereo unspecified) = 0.994
C[C@]12CCC3c4ccc(O)cc4CCC3C1CC[C@@H]2O (stereo partly specified) = 1.03
COc1ccc2c3c1OC1C(O)CC=C4C(C2)N(C)CCC431 (stereo unspecified) = 1
CCOC(=O)NC1=C(C2CC2)C(=O)C(NC(=O)OCC)=C(C2CC2)C1=O = 0.988

Challenge: # normalized growth lookup, item NC(=O)NCCCC(N)C(=O)O (stereo unspecified)
Response given: 0.995

----------
Assay: chemical genetic growth profiling, strain panel (AID 1159580);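 further: tested at 20 µM; growth read once vehicle control cultures reached saturation at 30 °C; 1 = growth at the plate median or of vehicle wells; lower values mean less growth of the strain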
Details: S. cerevisiae deletion strains, growth OD, locus YPL078C, strain atp4, hits give low values
Out of some 5,500 compounds screened, about 2,000 (36%) were called active. About 18% were inconclusive and are not listed. This is one part of the list.
property: normalized growth
Give bare numbers.

Parameters: items (list). Returns: normalized growth for each item.
1. COc1cc2occc2c2oc(=O)ccc12
2. CC(C1OC(C)(C)C(O)C1O)[C@@H]1CC[C@]2(C)C3=CCC4C(C)(C)C(=O)CC[C@]4(C)C3CC[C@@]12C (stereo not given in full)
3. C[N+](C)(C)CC(O)CC(=O)O (stereo not given)
4. CC[n+]1c(-c2ccccc2)c2cc(N)ccc2c2ccc(N)cc21
5. COc1ccc(Cl)cc1C(=O)NCCc1ccc(S(=O)(=O)NC(=O)NC2CCCCC2)cc1

Response given:
0.987
1
0.986
1.02
1.01

Take each entry in turn and give its normalized growth.
1. CC(=O)OC(C)C[N+](C)(C)C (stereo not given)
2. Cc1cc(C2CCCCC2)n(O)c(=O)c1
3. CC(CC(O)C1OC1(C)C)[C@@H]1CCC2(C)C3=CCC4C(C)(C)C(=O)CCC4(C)C3CC[C@@]12C (stereo not given in full)
4. Oc1ccc2c(c1)OCC1(O)Cc3cc(O)c(O)cc3C21 (stereo not given)
5. CC(=O)Oc1ccc2c(c1OC(C)=O)OCC1(O)Cc3c(cc(OC(C)=O)c(OC(C)=O)c3OC(C)=O)C21 (stereo not given)

Response given:
1: 0.981; 2: 0.0715; 3: 0.966; 4: 1.03; 5: 0.991

----------
Experiment: chemical genetic growth profiling, strain panel (AID 1159580);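 further: tested at 20 µM; growth read once vehicle control cultures reached saturation at 30 °C; 1 = growth at the plate median or of vehicle wells; lower values mean less growth of the strain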
Conditions: S. cerevisiae deletion strains, growth OD, locus YNL183C, strain NPR1, hits give low values
Hit rate of the full screen: of about 5,500 compounds, about 2,000 (36%) were called active. About 18% were inconclusive and are not listed. The list shows a part of the results.
Would you mind telling me the reported normalized growth of each entry?
One number for each entry.

O=C(O[C@@H]1Cc2c(O)cc(O)cc2O[C@@H]1c1cc(O)c(=O)c2c(O)c(O)cc([C@H]3Oc4cc(O)cc(O)c4C[C@H]3OC(=O)c3cc(O)c(O)c(O)c3)c2c1)c1cc(O)c(O)c(O)c1 = 0.983

Record normalized growth for all entries; do not skip any.
1. Oc1c(Cl)cc(Cl)cc1/C=N\NC(=S)Nc1cc(C(F)(F)F)cc(C(F)(F)F)c1
2. O=C1C=C2C(=CCOC2O)O1 (stereo not drawn)

Response given:
1. 0.245
2. 0.825
